test system: C8-D1A; test: MTT assay, 48 h exposure, murine primary astrocytes; format: cell-based; details: Mus musculus, C8-D1A, Table 3, mean ± SEM
measurement_type: IC50 (µM)
Output spec: scalar in µM, unitless text.

Prompt: # get_value(readout='IC50', item= COc1cc([C@@H]2c3cc4c(cc3[C@@H](O[C@@H]3O[C@@H]5CO[C@@H](C)O[C@H]5[C@H](O)[C@H]3O)[C@H]3COC(=O)[C@H]23)OCO4)cc(OC)c1O [Etoposide, etoposide] )
Completion: 2.2

Hello, the source for this data is paper PMC8750527, in case you need it.
